Average response reference
- target.entity: Drosophila OR85b (Drosophila melanogaster, UniProt Q9VHQ7)
- Construct: expressed in transfected cells
- Sequence (Q9VHQ7 whole entry): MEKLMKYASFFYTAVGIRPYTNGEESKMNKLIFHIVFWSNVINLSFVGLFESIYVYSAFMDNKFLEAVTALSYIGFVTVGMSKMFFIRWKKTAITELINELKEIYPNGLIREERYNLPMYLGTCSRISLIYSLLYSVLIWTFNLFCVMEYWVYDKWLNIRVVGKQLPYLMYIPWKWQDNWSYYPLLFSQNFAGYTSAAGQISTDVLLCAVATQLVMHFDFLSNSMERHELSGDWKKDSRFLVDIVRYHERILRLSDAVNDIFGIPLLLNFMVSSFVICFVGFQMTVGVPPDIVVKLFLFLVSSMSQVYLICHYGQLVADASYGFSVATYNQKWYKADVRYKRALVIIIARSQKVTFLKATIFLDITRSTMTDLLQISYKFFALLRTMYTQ
- Sequence (Q9VNB5 whole entry partner): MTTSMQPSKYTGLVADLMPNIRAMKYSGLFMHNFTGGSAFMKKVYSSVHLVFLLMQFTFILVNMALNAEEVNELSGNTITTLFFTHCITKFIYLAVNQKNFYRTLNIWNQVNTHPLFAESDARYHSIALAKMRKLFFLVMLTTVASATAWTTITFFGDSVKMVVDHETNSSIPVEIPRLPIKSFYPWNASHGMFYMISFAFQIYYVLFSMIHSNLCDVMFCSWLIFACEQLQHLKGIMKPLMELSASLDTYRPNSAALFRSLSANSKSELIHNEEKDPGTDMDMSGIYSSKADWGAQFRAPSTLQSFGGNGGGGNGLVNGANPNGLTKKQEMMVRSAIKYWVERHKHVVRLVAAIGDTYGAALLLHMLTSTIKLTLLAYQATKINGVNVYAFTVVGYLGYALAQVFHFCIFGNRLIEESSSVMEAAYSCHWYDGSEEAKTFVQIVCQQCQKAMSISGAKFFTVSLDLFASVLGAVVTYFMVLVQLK
- assay.protocol: Calcium ion fluorescence (GCaMP6) assay, OR85b stable HEK293 cell line
- Format: cell-based
- assay.context: OR85b cell line; cc. 1 µM; VUAA1-normalized response, mean of biological replicates
Number only, please.

For orientation, consider the following solved cases.
>>> df
                                compound                             target_entity  observed
0           CCCCC(C)O (stereo not shown)  Drosophila OR85b (Drosophila melanogaster, UniProt Q9VHQ7)      0.05
1  CC/C=C\CCOC(C)=O [z3-hexenyl acetate]  Drosophila OR85b (Drosophila melanogaster, UniProt Q9VHQ7)      0.15
2                         COc1cccc(OC)c1  Drosophila OR85b (Drosophila melanogaster, UniProt Q9VHQ7)      0.00
3                           Cc1ccc(C)cc1  Drosophila OR85b (Drosophila melanogaster, UniProt Q9VHQ7)    0.0373
4                           Cc1ccc(O)cc1  Drosophila OR85b (Drosophila melanogaster, UniProt Q9VHQ7)      0.00
5         CCCCCC(O)CC (stereo not shown)  Drosophila OR85b (Drosophila melanogaster, UniProt Q9VHQ7)      0.00
6           CCCC(=O)OCC [ethyl butyrate]  Drosophila OR85b (Drosophila melanogaster, UniProt Q9VHQ7)      0.00
7      CCOC(=O)c1ccccc1 [ethyl benzoate]  Drosophila OR85b (Drosophila melanogaster, UniProt Q9VHQ7)    0.0211

Provide only the value of recorded Average response for C=C1CCC2(C(C)C)CC12 (stereo not shown) 0.0647

Provide only the value of recorded Average response for CCCCC(C)=O 0.00
